# Tested on: U251 CNS
# PROCEDURE_DETAILS: NCI-60 one-dose screen, 48 h (100 = growth as untreated, 0 = no growth, -100 = all killed)
# SETUP_CONDITIONS: 10 µM
This is part of a sample that, as a whole, favours compounds with a hit. Of some 83,000 tested, about 20% had one in any assay.
ASSAY_ENDPOINT: growth (%)
The reply should contain only the number, in %.

Past entries and their recorded results:
[
  {
    "COMPOUND": "NC1=NC(=O)C(c2ccccc2)(c2ccccc2)S1",
    "TARGET_DESC": "U251 CNS",
    "UNITS_OF_MEASURE": "%",
    "growth": 99.4
  },
  {
    "COMPOUND": "COc1cc(-c2cc(-c3cc4c([nH]c5ccccc54)c(-c4cc(OC)c(OC)c(OC)c4)n3)cc(-c3ccccc3)n2)cc(OC)c1OC",
    "TARGET_DESC": "U251 CNS",
    "UNITS_OF_MEASURE": "%",
    "growth": 62.1
  },
  {
    "COMPOUND": "CSc1nc(=O)n(Cc2ccc(F)cc2)c(=O)n1Cc1ccc(C)cc1",
    "TARGET_DESC": "U251 CNS",
    "UNITS_OF_MEASURE": "%",
    "growth": 94.7
  },
  {
    "COMPOUND": "COc1ccc(N2C(=O)C3c4[nH]c5ccc(OCc6ccccc6)cc5c4C4CCC(C(C)C)CC4C3C2=O)cc1 (centres undefined)",
    "TARGET_DESC": "U251 CNS",
    "UNITS_OF_MEASURE": "%",
    "growth": 18.8
  }
]

State the recorded growth for this entry: `CC12O[C@H](C[C@@H](O)[C@H]1O)n1c3ccccc3c3c4c(c5c6ccccc6n2c5c31)C(=O)N(CCCN)C4=O` 14.8

Same lookup for `COc1cc(-c2nc(-c3nnc(-c4ccccc4Cl)o3)c3ccccn23)cc(OC)c1OC` , please. 96.9

Same lookup for CCCCCCCCCCCCCCCCN(C(C)c1ccccc1)S(=O)(=O)c1ccc(OC)c(N)c1 (centres undefined) , please. 100

Same lookup for `COc1cc(OC)cc(-c2cncn2-c2ccc(-c3nc4cc(OC)cc(OC)c4s3)cc2)c1` , please. 40.8

Same lookup for `CCCCCCN1CCN(Cc2ccc(N(CC)CC)cc2)C(=O)C1=O` , please. 17.1
